assayed_system: CyclinE1/CDK2 (Homo sapiens, UniProt P24864)
Construct: purchased Eurofins, discovery 14-475
test_name: Fluorescence Polarization (FP) competitive binding assay, Cyclin E1/Cdk2;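 also: readings taken after two-hour equilibration at room temperature in HEPES buffer with NaCl, DTT, NP-40 and BSA, IC50 fitted from eight-concentration serial dilution series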
*1 amine or outer side, *2 acyl side, *3 side chain or, on linkers, in order; H or OH if unused. Where a SMILES comes first, the peptide text is derived from it. Bridges are numbered along the chain shown (N, C = ends). [ ]: non-standard residue; d: D form. The star is where a group is joined. NMe3Pal(2-OiBu,5-Cl) = CN[C@@H](Cc1cc(Cl)cnc1OCC(C)C)C(=O)O; NMehhhLys(Me) = CN([C@@H](CCCCCCCN(C)[*:3])C(=O)[*:2])[*:1]; X112 = CN([C@@H](Cc1cc(F)ccc1-c1cnn(C)c1)C(=O)[*:2])[*:1]; NMe(hhhLys) = CN([C@@H](CCCCCCCN[*:3])C(=O)[*:2])[*:1]; cBuCO(3,3-F2-1-CF3) = O=C(C1(C(F)(F)F)CC(F)(F)C1)*; X25 = CCOc1ncc(Cl)cc1C[C@@H](C(=O)[*:2])N(C)[*:1]; Pro(trans-4-F) = O=C(O)[C@@H]1C[C@@H](F)CN1; Gly(cPr) = N[C@H](C(=O)O)C1CC1

>  <molecule>
CC(C)COc1ncc(Cl)cc1C[C@H]1C(=O)N(C)CCCCCCC[C@H](N(C)C(=O)[C@@H](NC(=O)[C@@H]2C[C@@H](F)CN2C(=O)C2(C(F)(F)F)CC(F)(F)C2)C2CC2)C(=O)N[C@@H](CC(C)C)C(=O)N1C [Example 228] ({cBuCO(3,3-F2-1-CF3)}-[Pro(trans-4-F)][Gly(cPr)][NMehhhLys(Me)]L[NMe3Pal(2-OiBu,5-Cl)]; lactam 3-C)

>  <IC50 / nM>
250

$$$$
>  <molecule>
CC(C)C[C@@H]1NC(=O)[C@@H](N(C)C(=O)[C@@H](NC(=O)[C@@H]2C[C@@H](F)CN2C(=O)C2(C(F)(F)F)CC(F)(F)C2)C2CC2)CCCCCCCNC(=O)[C@H](Cc2cc(F)ccc2-c2cnn(C)c2)N(C)C1=O [Example 215] ({cBuCO(3,3-F2-1-CF3)}-[Pro(trans-4-F)][Gly(cPr)][NMe(hhhLys)]L[X112]; lactam 3-C)

>  <IC50 / nM>
200

$$$$
>  <molecule>
CCOc1ncc(Cl)cc1C[C@H]1C(=O)N(C)CCCCCCC[C@H](N(C)C(=O)[C@@H](NC(=O)[C@@H]2C[C@@H](F)CN2C(=O)C2(C(F)(F)F)CC(F)(F)C2)C2CC2)C(=O)N[C@@H](CC(C)C)C(=O)N1C [Example 225] ({cBuCO(3,3-F2-1-CF3)}-[Pro(trans-4-F)][Gly(cPr)][NMehhhLys(Me)]L[X25]; lactam 3-C)

>  <IC50 / nM>
190

$$$$

---

Test system: NCI-H1048 cells
test_name: MTT proliferation assay, NCI-H1048;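 also: Dose-response in 96-well plates over 8 or 10 concentration points, with exposure spanning 3-4 cell doublings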
Type: cell-based
condition_label: 5 days compound exposure, 1:3 serial dilution starting at 10 μM
*1 amine or outer side, *2 acyl side, *3 side chain or, on linkers, in order; H or OH if unused. Where a SMILES comes first, the peptide text is derived from it. Bridges are numbered along the chain shown (N, C = ends). [ ]: non-standard residue; d: D form. The star is where a group is joined. X47 = C[C@@H]1CN(c2ccc(-c3ccc(Cl)cc3C[C@@H](C(=O)[*:2])N(C)[*:1])cc2)C[C@H](C)N1C; X98 = CN1CC2(C1)OCc1cc(-c3ccc(Cl)cc3C[C@@H](C(=O)[*:2])N(C)[*:1])ccc12; NMehhhLys(Me) = CN([C@@H](CCCCCCCN(C)[*:3])C(=O)[*:2])[*:1]; NMe(hhhLys) = CN([C@@H](CCCCCCCN[*:3])C(=O)[*:2])[*:1]; cBuCO(3,3-F2-1-CF3) = O=C(C1(C(F)(F)F)CC(F)(F)C1)*; Pro(trans-4-F) = O=C(O)[C@@H]1C[C@@H](F)CN1; Gly(cPr) = N[C@H](C(=O)O)C1CC1

>  <compound>
CC(C)C[C@@H]1NC(=O)[C@@H](N(C)C(=O)[C@@H](NC(=O)[C@@H]2C[C@@H](F)CN2C(=O)C2(C(F)(F)F)CC(F)(F)C2)C2CC2)CCCCCCCN(C)C(=O)[C@H](Cc2cc(Cl)ccc2-c2ccc(N3C[C@@H](C)N(C)[C@@H](C)C3)cc2)N(C)C1=O [Example 384] ({cBuCO(3,3-F2-1-CF3)}-[Pro(trans-4-F)][Gly(cPr)][NMehhhLys(Me)]L[X47]; lactam 3-C)

>  <uom>
µM

>  <GI50>
0.01

$$$$
>  <compound>
CC(C)C[C@@H]1NC(=O)[C@@H](N(C)C(=O)[C@@H](NC(=O)[C@@H]2C[C@@H](F)CN2C(=O)C2(C(F)(F)F)CCC2)C2CC2)C/C=C\CCCCN(C)C(=O)[C@H](Cc2cc(Cl)ccc2-c2cnn(C3CC3)c2)N(C)C1=O

>  <uom>
µM

>  <GI50>
0.01

$$$$
>  <compound>
CC(C)C[C@@H]1NC(=O)[C@@H](N(C)C(=O)[C@@H](NC(=O)[C@@H]2C[C@@H](F)CN2C(=O)C2(C(F)(F)F)CC(F)(F)C2)C2CC2)CCCCCCCNC(=O)[C@H](Cc2cc(Cl)ccc2-c2ccc3c(c2)COC32CN(C)C2)N(C)C1=O [Example 395] ({cBuCO(3,3-F2-1-CF3)}-[Pro(trans-4-F)][Gly(cPr)][NMe(hhhLys)]L[X98]; lactam 3-C)

>  <uom>
µM

>  <GI50>
0.02

$$$$

---

assayed_system: CyclinA2/CDK2 (Homo sapiens, UniProt P20248)
Construct: purchased CRELUX Protein Services
test_name: Fluorescence Polarization (FP) competitive binding assay, Cyclin A2/Cdk2;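 also: plates equilibrated two hours at room temperature before polarization reading, IC50 fitted from eight-concentration compound titration curves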
condition_label: 8 nM Cyclin A2/Cdk2, 2 nM FAM probe; average of 2-3 independent experiments; read-out: Cyclin A FP IC50
*1 amine or outer side, *2 acyl side, *3 side chain or, on linkers, in order; H or OH if unused. Where a SMILES comes first, the peptide text is derived from it. Bridges are numbered along the chain shown (N, C = ends). [ ]: non-standard residue; d: D form. The star is where a group is joined. NMehhhLys(Me) = CN([C@@H](CCCCCCCN(C)[*:3])C(=O)[*:2])[*:1]; X51 = CSc1cncc(-c2ccc(Cl)cc2C[C@@H](C(=O)[*:2])N(C)[*:1])c1; cBuCO(3,3-F2-1-CF3) = O=C(C1(C(F)(F)F)CC(F)(F)C1)*; Pro(trans-4-F) = O=C(O)[C@@H]1C[C@@H](F)CN1; Gly(cPr) = N[C@H](C(=O)O)C1CC1
A collection of compounds and their measured IC50
assay_readout: IC50 (nM)

>  <compound>
CC(=O)N1CC=C(c2ccc(Cl)cc2C[C@H]2C(=O)N(C)CCCCC=CC[C@H](N(C)C(=O)[C@@H](NC(=O)[C@@H]3C[C@@H](F)CN3C(=O)C3(C(F)(F)F)CCC3)C3CC3)C(=O)N[C@@H](CC(C)C)C(=O)N2C)CC1 [Example 36]

>  <assay_readout>
IC50

>  <numeric_value>
30

$$$$
>  <compound>
CSc1cncc(-c2ccc(Cl)cc2C[C@H]2C(=O)N(C)CCCCCCC[C@H](N(C)C(=O)[C@@H](NC(=O)[C@@H]3C[C@@H](F)CN3C(=O)C3(C(F)(F)F)CC(F)(F)C3)C3CC3)C(=O)N[C@@H](CC(C)C)C(=O)N2C)c1 [Example 202] ({cBuCO(3,3-F2-1-CF3)}-[Pro(trans-4-F)][Gly(cPr)][NMehhhLys(Me)]L[X51]; lactam 3-C)

>  <assay_readout>
IC50

>  <numeric_value>
50

$$$$

Origin of values: patent US20240408169A1
